testProtocol: NCI Yeast Anticancer Drug Screen. Data for the mlh1 rad18 strain (AID 175)
statedConditions: S. cerevisiae mlh1 rad18 strain growth inhibition; at 50.0 µM; active compounds read high
Compounds without any hit were thinned out: in the full panel of roughly 79,000, 15% have a hit.
Below, each entry is listed alongside its reported growth inhibition.
readout: growth inhibition (%)

1. CC1(CO)C(O)CCC2(C)C1C(O)CC1CC3CC12CCC3(O)CO (stereo not drawn)	-22.1
2. CCOC(=O)CN(C)C#N	-2.15
3. CCNc1ccc(Cl)cc1[N+](=O)[O-]	-26.6
4. CCCCCCn1c(=O)cc2n(c1=O)CCC2	-3.4
5. O=C1c2c(c3c4ccccc4[nH]c3c3[nH]c4ccccc4c23)C(=O)N1Cc1ccccc1	10.2
6. O=C(/C=C\c1ccccc1)Nc1c(Cl)cc(Cl)cc1Cl	23.3
7. N#CC(=C1C=CC(=NO)C=C1)c1ccc(Cl)cc1	1.9
8. CN1C/C(=C\c2ccco2)c2nc(N)nc(-c3ccco3)c2C1	-4.15
9. CCOC(=O)c1c[nH]c2ccc3c(nc(C)n3C)c2c1=O	-47.5
10. CCOC1C(Br)Cn2c(=O)c3cc4ccccc4cc3c(=O)n2C1C (stereo not drawn)	33.2
11. C/C(CC(O)(C(F)(F)F)C(F)(F)F)=N\O	-5.65
12. COc1ccc(OC)c(CCCC(=O)O)c1	-8.7
13. O=S(=O)([O-])c1ccc2c(c1)-c1nc-2nc2[n-]c(nc3nc(nc4[n-]c(n1)c1ccc(S(=O)(=O)[O-])cc41)-c1cc(S(=O)(=O)[O-])ccc1-3)c1ccc(S(=O)(=O)[O-])cc21.[Cu+2].[Na+]	-94.2
14. COC(=O)C(C)S(=O)(=O)O (stereo not drawn)	0.3
15. CC(=O)NNc1nc(C)c(C(/C=C/c2ccccc2O)=N/NC(=O)c2ccncc2)s1	22.2
16. C=CCOC(C)n1c(C)cc(=O)n(C(C)OCC=C)c1=O (stereo not drawn)	-29.8
17. CC(=O)OCC1OC(SC2=NC(=O)CS2)C(OC(C)=O)C(OC(C)=O)C1OC(C)=O (stereo not drawn)	17.4
18. COc1c2c(c(OC)c3c(=O)c4ccccc4[nH]c13)OCO2	22.9
19. O=C(Nc1ccccc1)Oc1ccc(/C=N/Sc2cccc([N+](=O)[O-])c2)cc1	62.2
20. CCOC(=O)c1ccc(NC(=O)Oc2cc(C)c(Cl)c(C)c2)cc1	-3.65
21. O=C(/C=C/c1ccc(Cl)c(Cl)c1)c1ccc2ccccc2c1	20.2
22. COc1cccc2sc(-n3c(C)nc4ccccc4c3=O)nc12	40.5
23. Cc1ccc(CO)cc1	21.7
24. COc1cc2c(cc1OC)C1=NN(c3ccccc3)C(=O)C1CC2 (stereo not drawn)	18.8
25. c1c2c(cc3c1OCN(C1CC1)C3)OCN(C1CC1)C2	-3.35
26. CC1(C)OC(C2SCCS2)C2OC(=O)C(O[Si](C)(C)C(C)(C)C)C2O1 (stereo not drawn)	-1.5
27. Cc1cc(O)c(C=NC(=S)c2ccccc2)c(=O)o1	-40.4
28. CCCc1cc2c3c(c(=O)oc2cc1O)CCCCC3	-14.3
29. C=C(C)C1CCC2(C=O)CCC3(C)C(CCC4C5(C)CCC(O)C(C)(C)C5CCC43C)C12 (stereo not drawn)	20.8
30. COc1ccc2c(c1OC)CN1CCc3cc4c(cc3C1=C2)OCO4	12.9
31. O=C1c2ccccc2C(=O)N1/N=C1/SC(=Nc2ccccc2)C(=Nc2ccccc2)N1c1ccccc1	20.1
32. COc1ccccc1CCCO	-3.1
33. CCCCCCCCSc1nc(Nc2cc(C(C)(C)C)c(O)c(C(C)(C)C)c2)nc(SCCCCCCCC)n1	28.4

Numbers sourced from PubChem BioAssay (NCI).
